# Format: in vivo, healthy Chinese volunteers
# reportedConditions: human, plasma, oral, 10 mg, Cmax, geometric mean, Fed (high-fat diet); single 10 mg EMPA
experimentalEndpoint: Cmax (ng/mL)
The answer is to be given in ng/mL; state only the numeric part.

Cmax in this record for OC[C@H]1O[C@@H](c2ccc(Cl)c(Cc3ccc(O[C@H]4CCOC4)cc3)c2)[C@H](O)[C@@H](O)[C@@H]1O [EMPA, empagliflozin] : 113

* * *

# Type: in vivo, healthy Chinese volunteers
# reportedConditions: human, plasma, oral, 10 mg, t1/2, geometric mean, Fed (high-fat diet); single 10 mg EMPA
experimentalEndpoint: half-life (h)
Express your answer in h, writing the number without its unit.

The molecule listed as OC[C@H]1O[C@@H](c2ccc(Cl)c(Cc3ccc(O[C@H]4CCOC4)cc3)c2)[C@H](O)[C@@H](O)[C@@H]1O has a reported half-life of 8.34

* * *

# Assay type: in vivo, healthy Chinese volunteers
# reportedConditions: human, plasma, oral, 10 mg, AUC0-t, geometric mean, Fed (high-fat diet); single 10 mg EMPA
experimentalEndpoint: AUC(0-t) (ng·h/mL)
Give your result in ng·h/mL as a bare value.

Entry OC[C@H]1O[C@@H](c2ccc(Cl)c(Cc3ccc(O[C@H]4CCOC4)cc3)c2)[C@H](O)[C@@H](O)[C@@H]1O [EMPA, empagliflozin] — recorded AUC(0-t) = 951

* * *

# Format: in vivo, healthy Chinese volunteers
# reportedConditions: human, plasma, oral, 10 mg, Plasma concentrations, Fasting (n = 56); 2 h after 10 mg EMPA
experimentalEndpoint: concentration at 2 h (ng/mL)
A number alone suffices; assume ng/mL.

Short answer for OC[C@H]1O[C@@H](c2ccc(Cl)c(Cc3ccc(O[C@H]4CCOC4)cc3)c2)[C@H](O)[C@@H](O)[C@@H]1O : concentration at 2 h was 152

* * *

# Assay type: in vivo, healthy Chinese volunteers
# reportedConditions: human, plasma, oral, 10 mg, Plasma concentrations, Fasting (n = 56); 12 h after 10 mg EMPA
experimentalEndpoint: concentration at 12 h (ng/mL)
Field format: number, assumed ng/mL, no unit text.

Query OC[C@H]1O[C@@H](c2ccc(Cl)c(Cc3ccc(O[C@H]4CCOC4)cc3)c2)[C@H](O)[C@@H](O)[C@@H]1O [EMPA, empagliflozin] yields concentration at 12 h of 30.7

* * *

# Assay type: in vivo, healthy Chinese volunteers
# reportedConditions: human, plasma, oral, 10 mg, Plasma concentrations, Fed (n = 58), high-fat diet; 0.5 h after 10 mg EMPA
experimentalEndpoint: concentration at 0.5 h (ng/mL)
Field format: number, assumed ng/mL, no unit text.

Sample OC[C@H]1O[C@@H](c2ccc(Cl)c(Cc3ccc(O[C@H]4CCOC4)cc3)c2)[C@H](O)[C@@H](O)[C@@H]1O ; concentration at 0.5 h observed: 34.2

* * *

# Format: in vivo, healthy Chinese volunteers
# reportedConditions: human, plasma, oral, 10 mg, Plasma concentrations, Fed (n = 58), high-fat diet; 6 h after 10 mg EMPA
experimentalEndpoint: concentration at 6 h (ng/mL)
Write it as a number; the unit ng/mL goes unstated.

// concentration at 6 h value for OC[C@H]1O[C@@H](c2ccc(Cl)c(Cc3ccc(O[C@H]4CCOC4)cc3)c2)[C@H](O)[C@@H](O)[C@@H]1O : 53.1

* * *

# Assay type: in vivo, healthy Chinese volunteers
# reportedConditions: human, plasma, oral, 10 mg, Plasma concentrations, Fed (n = 58), high-fat diet; 2 h after 10 mg EMPA
experimentalEndpoint: concentration at 2 h
# do not omit the unit; it follows the number

Data point: OC[C@H]1O[C@@H](c2ccc(Cl)c(Cc3ccc(O[C@H]4CCOC4)cc3)c2)[C@H](O)[C@@H](O)[C@@H]1O [EMPA, empagliflozin] ; concentration at 2 h = 94.2 ng/mL

* * *

# Format: in vivo, healthy Chinese volunteers
# reportedConditions: human, plasma, oral, 10 mg, Plasma concentrations, Fasting (n = 56); 24 h after 10 mg EMPA
experimentalEndpoint: concentration at 24 h (ng/mL)
Report only the number, with the unit ng/mL understood.

# concentration at 24 h of OC[C@H]1O[C@@H](c2ccc(Cl)c(Cc3ccc(O[C@H]4CCOC4)cc3)c2)[C@H](O)[C@@H](O)[C@@H]1O = 10.1

* * *

# Assay type: in vivo, healthy Chinese volunteers
# reportedConditions: human, plasma, oral, 10 mg, Plasma concentrations, Fasting (n = 56); 10 h after 10 mg EMPA
experimentalEndpoint: concentration at 10 h (ng/mL)
// return numeric value only (unit: ng/mL, not printed)

Entry OC[C@H]1O[C@@H](c2ccc(Cl)c(Cc3ccc(O[C@H]4CCOC4)cc3)c2)[C@H](O)[C@@H](O)[C@@H]1O — recorded concentration at 10 h = 40.4

* * *

# Assay type: in vivo, healthy Chinese volunteers
# reportedConditions: human, plasma, oral, 10 mg, Plasma concentrations, Fed (n = 58), high-fat diet; 12 h after 10 mg EMPA
experimentalEndpoint: concentration at 12 h

Entry OC[C@H]1O[C@@H](c2ccc(Cl)c(Cc3ccc(O[C@H]4CCOC4)cc3)c2)[C@H](O)[C@@H](O)[C@@H]1O ; concentration at 12 h = 25.4 ng/mL

* * *

# Assay type: in vivo, healthy Chinese volunteers
# reportedConditions: human, plasma, oral, 10 mg, Plasma concentrations, Fed (n = 58), high-fat diet; 1.5 h after 10 mg EMPA
experimentalEndpoint: concentration at 1.5 h
Note: state the figure and append the unit.

Data point: OC[C@H]1O[C@@H](c2ccc(Cl)c(Cc3ccc(O[C@H]4CCOC4)cc3)c2)[C@H](O)[C@@H](O)[C@@H]1O ; concentration at 1.5 h = 95.7 ng/mL

* * *

# Type: in vivo, healthy Chinese volunteers
# reportedConditions: human, plasma, oral, 10 mg, Tmax, geometric mean, Fasting; single 10 mg EMPA
experimentalEndpoint: Tmax (h)
# output: bare number, implied unit h

For this compound ( OC[C@H]1O[C@@H](c2ccc(Cl)c(Cc3ccc(O[C@H]4CCOC4)cc3)c2)[C@H](O)[C@@H](O)[C@@H]1O ), measured Tmax is 1.31

* * *

# Format: in vivo, healthy Chinese volunteers
# reportedConditions: human, plasma, oral, 10 mg, Plasma concentrations, Fasting (n = 56); 3 h after 10 mg EMPA
experimentalEndpoint: concentration at 3 h (ng/mL)
Note: unit ng/mL is implicit; provide only the numeric part.

# compound OC[C@H]1O[C@@H](c2ccc(Cl)c(Cc3ccc(O[C@H]4CCOC4)cc3)c2)[C@H](O)[C@@H](O)[C@@H]1O [EMPA, empagliflozin] ; its concentration at 3 h = 123
